subject of test: murine IL-2 receptor βγc heterodimer (mIL-2Rβγc) (mouse) (UniProt P16297)
method description: SPR; mIL-2Rγ immobilised, saturating mIL-2Rβ in solution
pKd: −log10 of the molar value.
result type: pKd

| binder | test result |
| --- | --- |
| G2_neo2_40_1F_seq36 (designed binder) PKKKIQLLAEHALLDALMILNIVKTNSQNAEEKLEDYASNVEVILEEIARLMESGDQKDEAEKAKRMKEWMKRIKTTASEDEQEEMANRIITLLQSWIFS | 6.25 |
| G1_neo2_40_1F_H5 (designed binder) STKKTQLLIEHALLDALHMSRKLPEPNEKLSRIITTMQSWIFTGKIDGDGAQHLAKEVEELEQEHEKRGGEVEDEASNLKVILLELA | 5.29 |
